Origin of values: ChEMBL document CHEMBL3994643

Reported pEC50 by item:
Tested on: MIN6
Experiment: Induction of glucose-stimulated insulin secretion in mouse MIN6 cells after 2 hrs by ELISA
Format: functional, cell-based
Conditions: MIN6, 2 h
pEC50 is defined as minus the log10 of a concentration measured in mol/L.

Answered examples (5):
- CCC(=O)O[C@@H]1[C@]2(CC)C=CCN3CC[C@@]4(c5ccc(OC)cc5N(C)[C@H]4[C@@]1(O)C(=O)OC)[C@@H]32: 4.49
- CCCOC[C@@]1(O)[C@H](OC(C)=O)[C@]2(CC)C=CCN3CC[C@@]4(c5ccc(OC)cc5N(C)[C@@H]14)[C@@H]32: 4.38
- CC[C@]12C=CCN3CC[C@@]4(c5ccc(OC)cc5N(C)[C@H]4[C@@](O)(COC)[C@@H]1OC(C)=O)[C@@H]32: 4.39
- CCC(=O)OC[C@@]1(O)[C@H](OC(C)=O)[C@]2(CC)C=CCN3CC[C@@]4(c5ccc(OC)cc5N(C)[C@@H]14)[C@@H]32: 4.29
- CCOC[C@@]1(O)[C@H](OC(=O)C(C)C)[C@]2(CC)C=CCN3CC[C@@]4(c5ccc(OC)cc5N(C)[C@@H]14)[C@@H]32: 4.85

# pEC50 measured on MIN6 for item CC[C@]12C=CCN3CC[C@@]4(c5ccc(OC)cc5N(C)[C@H]4[C@@](O)(CNC(=O)C(C)(C)C)[C@@H]1OC(C)=O)[C@@H]32 = 4.68

# pEC50 measured on MIN6 for item CC[C@]12CCCN3CC[C@@]4(c5ccc(OC)cc5N(C)[C@H]4[C@@](O)(C(=O)OC)[C@@H]1OC(=O)C(C)C)[C@@H]32 = 4.85
